The measurements presented in this section are drawn from the supplement of paper PMC10724198.

System: Saccharomyces cerevisiae
testMethodNotes: protein stability index of tFT-peptide fusion (C-terminal peptide) (PSI (0-1 scale)); higher = more stable (slower turnover)
experimentalSetup: genetic background: das1 deletion; temperature: 30 C
Assign protein stability index to each entry below.
Field format: numeric only.

Challenge: GET protein stability index where system = Saccharomyces cerevisiae and item = KGHVHSPRHNND [YOR379C C-terminal 12 aa]
Response given: 0.71

Challenge: GET protein stability index where system = Saccharomyces cerevisiae and item = FKQKYDADVLDK [RPL11A C-terminal 12 aa]
Response given: 0.69

Challenge: GET protein stability index where system = Saccharomyces cerevisiae and item = KVYDELKKQGLV [PRP9 C-terminal 12 aa]
Response given: 0.693

Challenge: GET protein stability index where system = Saccharomyces cerevisiae and item = SSVVSIPLREIL [YNR048W C-terminal 12 aa]
Response given: 0.712

Challenge: GET protein stability index where system = Saccharomyces cerevisiae and item = GTKEYYKGYEYL [MRX16 C-terminal 12 aa]
Response given: 0.698

Challenge: GET protein stability index where system = Saccharomyces cerevisiae and item = SKIPSSLYIYHM [YGL042C C-terminal 12 aa]
Response given: 0.707

Challenge: GET protein stability index where system = Saccharomyces cerevisiae and item = LKITDDLARKGF [TGL2 C-terminal 12 aa]
Response given: 0.721

Challenge: GET protein stability index where system = Saccharomyces cerevisiae and item = NNQPHYRDQLLQ [REI1 C-terminal 12 aa]
Response given: 0.698

Challenge: GET protein stability index where system = Saccharomyces cerevisiae and item = AKAGSTPKFRTE [YNL050C C-terminal 12 aa]
Response given: 0.69

Challenge: GET protein stability index where system = Saccharomyces cerevisiae and item = SKEFVGSVYLNF [TRL1 C-terminal 12 aa]
Response given: 0.679

Challenge: GET protein stability index where system = Saccharomyces cerevisiae and item = GSEIDFTDYLGP [PUT3 C-terminal 12 aa]
Response given: 0.729

Challenge: GET protein stability index where system = Saccharomyces cerevisiae and item = GVSFHVQVTMPQ [TRS33 C-terminal 12 aa]
Response given: 0.711

Challenge: GET protein stability index where system = Saccharomyces cerevisiae and item = VHKLGWSLSFDA [POR1 C-terminal 12 aa]
Response given: 0.706

Challenge: GET protein stability index where system = Saccharomyces cerevisiae and item = GFQTGSAKATSA [RPL37B C-terminal 12 aa]
Response given: 0.703

Challenge: GET protein stability index where system = Saccharomyces cerevisiae and item = ILIRKKLKAENI [OPY1 C-terminal 12 aa]
Response given: 0.677

Challenge: GET protein stability index where system = Saccharomyces cerevisiae and item = IKIRIYSPRSIS [YDL240C-A C-terminal 12 aa]
Response given: 0.715

Challenge: GET protein stability index where system = Saccharomyces cerevisiae and item = ELLYIIDHLSEL [BTS1 C-terminal 12 aa]
Response given: 0.693

Challenge: GET protein stability index where system = Saccharomyces cerevisiae and item = RQFKEILTVKEE [RRP40 C-terminal 12 aa]
Response given: 0.673

Challenge: GET protein stability index where system = Saccharomyces cerevisiae and item = LYAQLRENGLVP [SNU114 C-terminal 12 aa]
Response given: 0.695

Challenge: GET protein stability index where system = Saccharomyces cerevisiae and item = KHPRPFRQEHRC [YLR162W C-terminal 12 aa]
Response given: 0.699

Challenge: GET protein stability index where system = Saccharomyces cerevisiae and item = TIHTEVNIGIKQ [ENA1 C-terminal 12 aa]
Response given: 0.72

---

Tested on: Saccharomyces cerevisiae
testMethodNotes: protein stability index of tFT-peptide fusion (C-terminal peptide) (PSI (0-1 scale)); higher = more stable (slower turnover)
experimentalSetup: genetic background: wild type; temperature: 30 C
experimentalReadout: protein stability index
Field format: numeric only.

Challenge: GET protein stability index where system = Saccharomyces cerevisiae and item = EIVTTEINKKTN
Response given: 0.711

Challenge: GET protein stability index where system = Saccharomyces cerevisiae and item = PFPPSLPSLPLL
Response given: 0.698

Challenge: GET protein stability index where system = Saccharomyces cerevisiae and item = FLWAVSLCRSLV
Response given: 0.312

Challenge: GET protein stability index where system = Saccharomyces cerevisiae and item = SSTPGWVSCDKI
Response given: 0.735

Challenge: GET protein stability index where system = Saccharomyces cerevisiae and item = WPHAPSLPRFSG
Response given: 0.69

Challenge: GET protein stability index where system = Saccharomyces cerevisiae and item = LFHPPVCPVFLD
Response given: 0.758

Challenge: GET protein stability index where system = Saccharomyces cerevisiae and item = PSPPPTPPLICL
Response given: 0.697

Challenge: GET protein stability index where system = Saccharomyces cerevisiae and item = PFTSPAGSFPPP
Response given: 0.762

Challenge: GET protein stability index where system = Saccharomyces cerevisiae and item = VELSVVHMGHTA
Response given: 0.722

Challenge: GET protein stability index where system = Saccharomyces cerevisiae and item = SPPLSLPFFPRP
Response given: 0.641

Challenge: GET protein stability index where system = Saccharomyces cerevisiae and item = KKKKIKKKEKNK
Response given: 0.716

Challenge: GET protein stability index where system = Saccharomyces cerevisiae and item = LVHRGRRGSNIE
Response given: 0.754

Challenge: GET protein stability index where system = Saccharomyces cerevisiae and item = VRYGQRGTFGLL
Response given: 0.69

Challenge: GET protein stability index where system = Saccharomyces cerevisiae and item = ELGARGGRGGGR
Response given: 0.739

Challenge: GET protein stability index where system = Saccharomyces cerevisiae and item = PPPLPPPSLVSF
Response given: 0.674

Challenge: GET protein stability index where system = Saccharomyces cerevisiae and item = SRWTFSFYRNLD
Response given: 0.683

Challenge: GET protein stability index where system = Saccharomyces cerevisiae and item = NVTIRVAIRYHE
Response given: 0.575

Challenge: GET protein stability index where system = Saccharomyces cerevisiae and item = MGFRSVRGWVSL
Response given: 0.699

Challenge: GET protein stability index where system = Saccharomyces cerevisiae and item = PPPPPRPPYPIP
Response given: 0.735

Challenge: GET protein stability index where system = Saccharomyces cerevisiae and item = STLIARAQRGQA
Response given: 0.639

Challenge: GET protein stability index where system = Saccharomyces cerevisiae and item = LPSRSLPSPGPP
Response given: 0.714

Challenge: GET protein stability index where system = Saccharomyces cerevisiae and item = GFVPRSFNTLTS
Response given: 0.664

Challenge: GET protein stability index where system = Saccharomyces cerevisiae and item = FGFLSVSPLLSV
Response given: 0.642

Challenge: GET protein stability index where system = Saccharomyces cerevisiae and item = LYLKKIQQGIIK
Response given: 0.69

Challenge: GET protein stability index where system = Saccharomyces cerevisiae and item = TNRIRGTARKVK
Response given: 0.67

Challenge: GET protein stability index where system = Saccharomyces cerevisiae and item = MSIWKIFIWRLG
Response given: 0.263

Challenge: GET protein stability index where system = Saccharomyces cerevisiae and item = NKKKNKKIRQEK
Response given: 0.685

Challenge: GET protein stability index where system = Saccharomyces cerevisiae and item = VGFVYLTSAQVW
Response given: 0.527

Challenge: GET protein stability index where system = Saccharomyces cerevisiae and item = YKSELSIPYAPV
Response given: 0.687

Challenge: GET protein stability index where system = Saccharomyces cerevisiae and item = GFNRRVWRGLGV
Response given: 0.721

Challenge: GET protein stability index where system = Saccharomyces cerevisiae and item = PRHPLAPLPLPS
Response given: 0.724

Challenge: GET protein stability index where system = Saccharomyces cerevisiae and item = RLVRVTSIKGKR
Response given: 0.735

Challenge: GET protein stability index where system = Saccharomyces cerevisiae and item = DLYQRPPLPKFS
Response given: 0.688

Challenge: GET protein stability index where system = Saccharomyces cerevisiae and item = LALHWVESRFKH
Response given: 0.71

Challenge: GET protein stability index where system = Saccharomyces cerevisiae and item = LARPPPPSNHSP
Response given: 0.695

Challenge: GET protein stability index where system = Saccharomyces cerevisiae and item = PGRMEKKALKRP
Response given: 0.677

Challenge: GET protein stability index where system = Saccharomyces cerevisiae and item = ENPIASQWVRRY
Response given: 0.674

Challenge: GET protein stability index where system = Saccharomyces cerevisiae and item = KKKTKEKTRKKK
Response given: 0.702

Challenge: GET protein stability index where system = Saccharomyces cerevisiae and item = CAGPLLIPPLSL
Response given: 0.69

Challenge: GET protein stability index where system = Saccharomyces cerevisiae and item = GPIGVMLCNHHS
Response given: 0.674

Challenge: GET protein stability index where system = Saccharomyces cerevisiae and item = PIPSPYYPPTFC
Response given: 0.73

Challenge: GET protein stability index where system = Saccharomyces cerevisiae and item = SFYSAALSCVFI
Response given: 0.737

Challenge: GET protein stability index where system = Saccharomyces cerevisiae and item = DCVFLPCPRFFL
Response given: 0.707

Challenge: GET protein stability index where system = Saccharomyces cerevisiae and item = KKIRSMRREGQR
Response given: 0.714

Challenge: GET protein stability index where system = Saccharomyces cerevisiae and item = PRLPLPSRPSPR
Response given: 0.655

Challenge: GET protein stability index where system = Saccharomyces cerevisiae and item = PPPAPPSPPPPP
Response given: 0.65

Challenge: GET protein stability index where system = Saccharomyces cerevisiae and item = RVSLREVKAEKN
Response given: 0.682

Challenge: GET protein stability index where system = Saccharomyces cerevisiae and item = EDCAGIFCQSVK
Response given: 0.68

Challenge: GET protein stability index where system = Saccharomyces cerevisiae and item = LVFAFFLLSFFI
Response given: 0.425

Challenge: GET protein stability index where system = Saccharomyces cerevisiae and item = PPPGPPSAPPPH
Response given: 0.706

Challenge: GET protein stability index where system = Saccharomyces cerevisiae and item = PPPPPPLPLPLS
Response given: 0.711

Challenge: GET protein stability index where system = Saccharomyces cerevisiae and item = GSKISIKDKAQV
Response given: 0.685

Challenge: GET protein stability index where system = Saccharomyces cerevisiae and item = PPPPPPNAPPSS
Response given: 0.647

Challenge: GET protein stability index where system = Saccharomyces cerevisiae and item = AAVQVCVLLLLL
Response given: 0.414

Challenge: GET protein stability index where system = Saccharomyces cerevisiae and item = GGGCGGACRPVG
Response given: 0.692

Challenge: GET protein stability index where system = Saccharomyces cerevisiae and item = LRPTFLLLFRPL
Response given: 0.493

Challenge: GET protein stability index where system = Saccharomyces cerevisiae and item = VCGLTLSVCTFG
Response given: 0.567

Challenge: GET protein stability index where system = Saccharomyces cerevisiae and item = PPRQLPFLAPSP
Response given: 0.709

Challenge: GET protein stability index where system = Saccharomyces cerevisiae and item = PPPAPPLSMPAP
Response given: 0.0173

Challenge: GET protein stability index where system = Saccharomyces cerevisiae and item = NDRLDRRDWWEG
Response given: 0.695

Challenge: GET protein stability index where system = Saccharomyces cerevisiae and item = IKKEKKQKKKKG
Response given: 0.665

Challenge: GET protein stability index where system = Saccharomyces cerevisiae and item = VAVFFFCRVFFL
Response given: 0.289

Challenge: GET protein stability index where system = Saccharomyces cerevisiae and item = RSISGVNMENVQ
Response given: 0.639
